Source: ChEMBL document CHEMBL4706708

Tested on: MDA-MB-231
Assay: Antiproliferative activity against human MDA-MB-231 cells assessed as cell growth at 1 uM measured after 3 days by [3H]-thymidine incorporation assay relative to control
Type: functional
Conditions: MDA-MB-231, 72 h, time 3 day, read-out: Activity
Task for the reader: assign each of the following molecules its reported growth at 1 µM.
Answers are plain numbers, in %.

List growth at 1 µM for every entry below, keeping the order given.
1. Cc1c(NC(=O)c2sc3nc4c(cc3c2N)CN(Cc2ccccc2)CC4)cccc1C(F)(F)F
2. Nc1c(C(=O)Nc2cccc3ccncc23)sc2nc3c(cc12)CN(Cc1ccccc1)CC3
3. CC(=O)c1cc2c(N)c(C(=O)Nc3cccc(F)c3C)sc2nc1C
4. Cc1nc2sc(C(=O)Nc3cccc(Cl)c3C)c(N)c2cc1C(C)O (stereo not drawn)
5. Cc1nc2sc(C(=O)Nc3ccccc3)c(N)c2cc1C(C)O (stereo not drawn)
6. COc1ccc(NC(=O)c2sc3nc4c(cc3c2N)CN(C)CC4)cc1
7. Nc1c(C(=O)Nc2ccc3c(c2)OCCO3)sc2nc3c(cc12)C(=O)CCC3

Key:
1: 61.5; 2: 108; 3: 114; 4: 11.7; 5: 107; 6: 90.3; 7: 102

###

System: HCT-116
Assay: Antiproliferative activity against human HCT-116 cells assessed as cell growth at 1 uM measured after 3 days by [3H]-thymidine incorporation assay relative to control
Assay type: functional
Conditions: HCT-116, 72 h, time 3 day, read-out: Activity
Could you mark each record fulfilled if its growth at 1 µM falls strictly under 80%, and not fulfilled if it equals or exceeds it?

Solved entries (count: 8):
Cc1nc2sc(C(=O)Nc3cccc4ccncc34)c(N)c2cc1C(C)O (stereo unspecified) | not fulfilled
CC(=O)c1cc2c(N)c(C(=O)Nc3ccccc3C)sc2nc1C | not fulfilled
Cc1nc2sc(C(=O)Nc3cccc4ncccc34)c(N)c2cc1C(C)O (stereo unspecified) | not fulfilled
Nc1c(C(=O)Nc2cccc3ccccc23)sc2nc3c(cc12)CN(Cc1ccccc1)CC3 | fulfilled
Nc1c(C(=O)Nc2cncc3ccccc23)sc2nc3c(cc12)C(=O)CCC3 | not fulfilled
Nc1c(C(=O)Nc2ccccc2)sc2nc3c(cc12)CNCC3 | not fulfilled
COc1ccc(NC(=O)c2sc3nc(C)c(C(C)=O)cc3c2N)cc1 | not fulfilled
Cc1ccccc1NC(=O)c1sc2nc3c(cc2c1N)CN(C)CC3 | not fulfilled

Exercise: Determine whether this molecule shows growth at 1 µM lower than 80% (ties excluded): Cc1c(Br)cccc1NC(=O)c1sc2nc3c(cc2c1N)CN(Cc1ccccc1)CC3
Key: fulfilled

Exercise: Determine whether this molecule shows growth at 1 µM lower than 80% (ties excluded): CC(=O)c1cc2c(N)c(C(=O)Nc3cccc(C(F)(F)F)c3C)sc2nc1C
Key: not fulfilled

###

Assay: Thermodynamic solubility of compound in water measured after 15 mins RP-HPLC analysis
Format: physicochemical
Conditions: read-out: Therm_solubility
QUANTITY NAME: solubility thermodynamic at 0.25 h (µg/mL)
One number for each entry, in µg/mL.

List solubility thermodynamic at 0.25 h for every entry below, keeping the order given.
1. CC(=O)c1cc2c(N)c(C(=O)Nc3ccccc3Cl)sc2nc1C
2. Nc1c(C(=O)Nc2ccccn2)sc2nc3c(cc12)C(=O)CCC3
3. CC(=O)c1cc2c(N)c(C(=O)Nc3cccc(Cl)c3C)sc2nc1C
4. Cc1nc2sc(C(=O)Nc3cccc4ccncc34)c(N)c2cc1C(C)O (stereo not drawn)
5. CC(=O)c1cc2c(N)c(C(=O)Nc3cncc4ccccc34)sc2nc1C
6. Cc1nc2sc(C(=O)Nc3ccncc3)c(N)c2cc1C(C)O (stereo not drawn)
7. CC(=O)c1cc2c(N)c(C(=O)Nc3cccc(Br)c3C)sc2nc1C
8. Nc1c(C(=O)Nc2cccc3ncccc23)sc2nc3c(cc12)CN(Cc1ccccc1)CC3

Key:
1. 0.13
2. 0.64
3. 1.63
4. 10.1
5. 0.09
6. 2.85
7. 1.15
8. 0.62

###

Task for the reader: assign each of the following compounds its reported growth at 1 µM.
System: HCT-116
Test: Antiproliferative activity against human HCT-116 cells assessed as cell growth at 1 uM measured after 3 days by [3H]-thymidine incorporation assay relative to control
Type: functional
Settings: HCT-116, 72 h, time 3 day, read-out: Activity

Nc1c(C(=O)Nc2cccc3cccnc23)sc2nc3c(cc12)C(=O)CCC3 | 101%

List growth at 1 µM for every entry below, keeping the order given.
1. Nc1c(C(=O)Nc2cccc3ncccc23)sc2nc3c(cc12)C(=O)CCC3
2. COc1ccc(NC(=O)c2sc3nc4c(cc3c2N)COCC4)cc1
3. COc1ccc(NC(=O)c2sc3nc4c(cc3c2N)CN(C)CC4)cc1
4. Cc1nc2sc(C(=O)Nc3ccnc4ccccc34)c(N)c2cc1C(C)O (stereo not given)
5. CC(=O)c1cc2c(N)c(C(=O)Nc3cccc4ccncc34)sc2nc1C
6. CC(=O)c1cc2c(N)c(C(=O)Nc3ccccn3)sc2nc1C
7. Nc1c(C(=O)Nc2ccc3c(c2)OCCO3)sc2nc3c(cc12)C(=O)CCC3
8. COc1cccc(NC(=O)c2sc3nc(C)c(C(C)=O)cc3c2N)c1C

Key:
["96.3%", "80.1%", "98.9%", "93.6%", "108%", "91.7%", "76.2%", "96.8%"]

Nc1c(C(=O)Nc2ccccc2)sc2nc3c(cc12)CN(C(=O)OCc1ccccc1)CC3 has a reported growth at 1 µM of 3.1%

###

Task for the reader: assign each of the following compounds its reported growth at 1 µM.
System: MDA-MB-231
Assay: Antiproliferative activity against human MDA-MB-231 cells assessed as cell growth at 1 uM measured after 3 days by [3H]-thymidine incorporation assay relative to control
Assay type: functional
Conditions: MDA-MB-231, 72 h, time 3 day, read-out: Activity
Give bare numbers, in %.

COc1cccc(NC(=O)c2sc3nc4c(cc3c2N)CN(Cc2ccccc2)CC4)c1C | 106

List growth at 1 µM for every entry below, keeping the order given.
1. Cc1nc2sc(C(=O)Nc3cccc4cnccc34)c(N)c2cc1C(C)O (stereo unspecified)
2. CC(=O)c1cc2c(N)c(C(=O)Nc3cncc4ccccc34)sc2nc1C
3. Nc1c(C(=O)Nc2cccc3cnccc23)sc2nc3c(cc12)C(=O)CCC3

Key:
1. 102
2. 105
3. 107

List growth at 1 µM for every entry below, keeping the order given.
1. Cc1c(Cl)cccc1NC(=O)c1sc2nc3c(cc2c1N)CN(C)CC3
2. Nc1c(C(=O)Nc2ccccn2)sc2nc3c(cc12)C(=O)CCC3
3. CC(=O)c1cc2c(N)c(C(=O)Nc3cccc4cnccc34)sc2nc1C
4. Nc1c(C(=O)Nc2cncc3ccccc23)sc2nc3c(cc12)C(=O)CCC3
5. CC(=O)c1cc2c(N)c(C(=O)Nc3cccc(C(F)(F)F)c3C)sc2nc1C
6. CC(=O)c1cc2c(N)c(C(=O)Nc3cccc4ccncc34)sc2nc1C

Key:
1. 95.3
2. 27
3. 99.8
4. 111
5. 67.7
6. 101

List growth at 1 µM for every entry below, keeping the order given.
1. Nc1c(C(=O)Nc2ccccc2)sc2nc3c(cc12)COCC3
2. Cc1cccc(NC(=O)c2sc3nc4c(cc3c2N)CN(Cc2ccccc2)CC4)c1C
3. Nc1c(C(=O)Nc2cccc3cnccc23)sc2nc3c(cc12)CN(Cc1ccccc1)CC3
4. Cc1ccccc1NC(=O)c1sc2nc3c(cc2c1N)CN(C)CC3

Key:
98.9
4
108
95.3

List growth at 1 µM for every entry below, keeping the order given.
1. Cc1c(Cl)cccc1NC(=O)c1sc2nc3c(cc2c1N)COCC3
2. CC(=O)c1cc2c(N)c(C(=O)Nc3cccc(Cl)c3C)sc2nc1C

Key:
1. 50.9
2. 13.7

###

System: HCT-116
Test: Antiproliferative activity against human HCT-116 cells assessed as cell growth at 1 uM measured after 3 days by [3H]-thymidine incorporation assay relative to control
Type: functional
Settings: HCT-116, 72 h, time 3 day, read-out: Activity
Could you mark each record MET if its growth at 1 µM falls strictly under 90%, and NOT MET if it equals or exceeds it?

Solved entries (count: 3):
CC(=O)c1cc2c(N)c(C(=O)Nc3cccc4c3OCCO4)sc2nc1C | MET
Cc1ccccc1NC(=O)c1sc2nc3c(cc2c1N)CN(Cc1ccccc1)CC3 | NOT MET
CC(=O)c1cc2c(N)c(C(=O)Nc3cccc4ccccc34)sc2nc1C | MET

Exercise: Determine whether this compound shows growth at 1 µM lower than 90% (ties excluded): Cc1c(F)cccc1NC(=O)c1sc2nc3c(cc2c1N)CN(Cc1ccccc1)CC3
Key: NOT MET

Exercise: Determine whether this compound shows growth at 1 µM lower than 90% (ties excluded): CC(=O)c1cc2c(N)c(C(=O)Nc3cccc4ncccc34)sc2nc1C
Key: NOT MET

Exercise: Determine whether this compound shows growth at 1 µM lower than 90% (ties excluded): Cc1ccccc1NC(=O)c1sc2nc(C)c(C(C)O)cc2c1N (stereo not given)
Key: NOT MET

Exercise: Determine whether this compound shows growth at 1 µM lower than 90% (ties excluded): COc1cccc(NC(=O)c2sc3nc4c(cc3c2N)CN(Cc2ccccc2)CC4)c1
Key: MET

Exercise: Determine whether this compound shows growth at 1 µM lower than 90% (ties excluded): Cc1c(NC(=O)c2sc3nc4c(cc3c2N)CN(Cc2ccccc2)CC4)cccc1C(F)(F)F
Key: MET

Exercise: Determine whether this compound shows growth at 1 µM lower than 90% (ties excluded): CC(=O)c1cc2c(N)c(C(=O)Nc3cccc(F)c3C)sc2nc1C
Key: NOT MET
